The origin of these recorded values is patent US20240239907A1.

target: T1, human CXCR6 (human, UniProt O00574 1-342)
T1 construct: also called hu-CXCR6; wild type human CXCR6
T1 sequence (O00574 whole entry): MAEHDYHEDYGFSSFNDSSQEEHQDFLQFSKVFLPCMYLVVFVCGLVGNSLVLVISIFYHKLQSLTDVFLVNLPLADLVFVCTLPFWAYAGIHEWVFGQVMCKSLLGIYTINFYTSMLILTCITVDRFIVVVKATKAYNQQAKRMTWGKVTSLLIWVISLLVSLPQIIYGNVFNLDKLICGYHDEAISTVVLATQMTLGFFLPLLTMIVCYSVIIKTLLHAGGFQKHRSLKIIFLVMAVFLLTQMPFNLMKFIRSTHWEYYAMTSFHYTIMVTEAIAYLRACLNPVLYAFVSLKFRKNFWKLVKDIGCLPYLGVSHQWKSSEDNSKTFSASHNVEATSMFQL
method: screening on cells overexpressing CXCR6, one single concentration, yes/no
quantity: binding result

binder="CNGs-3B2 (antibody, V domains shown, Mouse-derived; tested at the screening stage) VH: DVQLVESGGGLVQPGGSRTLSCAASGFTFSSFGMHWVRQAPEKGLEWVAYISSGSTTIYYADTVKGRFTISRDNPKNTLFLQVTSLRSEDTAVYYCTRSHWPYWYFDVWGAGTTVTVSS VL: DVQITQSPSYLAASPGETITINCRASKSISKYLAWYQEKPGKTNKLLIYSGSTLQSGNPSRFSGSGSGTDFTLTISRLEPEDCAMYYCQQHNEFPWTFGGGTKLEIK" experimental_value=binds
binder="COXs-12E7 (antibody, V domains shown, Mouse-derived; tested at the screening stage) VH: EVHLVESGGGLVQPKGSLKLSCKASGFSFDTYAMNWVRQAPGKGLEWVARIRSKSKSYATYYADSVKDRFTISRDDSANILYLQMNNLKTEDTAIYYCLRQGSFDYWGQGTTLTVSS VL: DVVMTQTPLSLPVSLGDQASIYCRSSQRIVHSDGNTYLYWYLQRPGQSPKLLIYRVSNRFSGVPDRFSGSGSGTDFTLKISRVEAEDMGIYYCFQGTHFPYTFGGGTKLEIK" experimental_value=binds
binder="Genovac1-G2 (antibody, V domains shown, Mouse-derived) VH: DVQLQESGPGLVKPSQSLSLTCSVTGYSITSGYYWNWIRQFPGNKLEWMGYIRYDGSNNYNPSLKNRISITRDTSKNQFFLKLNSVTTEDTATYYCARDGYSTYFDYWGQGTTLTVSS VL: DIQMTQSPASLSASVGETVTITCRASENIYSYLAWYQQKQGKSPQLLVYNAKTLAEGVPSRFSGSGSGTQFSLKINSLQPEDFGSYYCQHHYGTPWTFGGGTKLEIK" experimental_value=binds
